Data provenance: PubChem BioAssay (NCI)

- Tested on: T-47D breast
- method-description: NCI tumour cell line growth inhibition, 48 h
quantity: TGI

The compound identified as CCOC(=O)c1nc2cc(C(F)(F)F)ccc2nc1Oc1ccc(OC)cc1 registered its TGI at > 100 µM

The compound identified as O=C1c2ccccc2C(=Nc2ccc3ccccc3c2)C1(C1=C(c2ccccc2)C(=Nc2ccc3ccccc3c2)c2ccccc21)c1ccccc1 (stereo not given) registered its TGI at > 100 µM

The compound identified as COc1ccc(-c2c(-c3cc(OC)c(OC)c(OC)c3)nc3sc(C4CC4)nn23)cc1OC registered its TGI at 30.5 µM

The compound identified as O=C(C=P(c1ccccc1)(c1ccccc1)c1ccccc1)c1ccc(-c2cccc([N+](=O)[O-])c2)cc1 registered its TGI at 27.1 µM

The compound identified as Oc1ccc(-c2nc3ccc4ccccc4c3c3c2CCCC3)c(O)c1 registered its TGI at > 100 µM

The compound identified as COc1ccc(C23OCC(Cc4cc(OC)c(OC)cc42)C3COC(C)=O)cc1OC (stereo not given) registered its TGI at > 100 µM

The compound identified as O=C(NCCOC(=O)OCCNC(=O)NC1CCCCC1)NC1CCCCC1 registered its TGI at > 100 µM

The compound identified as O=C(/C=C/c1cc2ccccc2[nH]c1=O)c1ccc(Cl)cc1 registered its TGI at > 100 µM

The compound identified as O=C(ON=c1c2ccccc2ccc2ccccc12)c1ccccc1 registered its TGI at 91.4 µM

The compound identified as Oc1c(CN2CCOCC2)ccc(CN2CCOCC2)c1O registered its TGI at > 100 µM

The compound identified as Cn1c(C(O)C2(c3cccnc3)SCCCS2)cc2ccccc21 (stereo not given) registered its TGI at > 100 µM

The compound identified as O=C(CCC(C(=O)OCc1ccccc1)C(=O)OCc1ccccc1)Nc1ccc(OCc2ccccc2)cc1 registered its TGI at > 100 µM

The compound identified as CCN(CC)CCCC(CO)Nc1ccnc2cc(Cl)ccc12 (stereo not given) registered its TGI at > 100 µM

The compound identified as CC(C)=CC(O)C(C(O)CCC1(C)OCCO1)S(=O)(=O)c1ccccc1 (stereo not given) registered its TGI at > 100 µM

The compound identified as Cc1cc(C#N)c[n+](C)c1 registered its TGI at > 100 µM

The compound identified as c1cc(-c2ccc(-c3ccc(-c4ccc(-c5cccc6nsnc56)[nH]4)c4nsnc34)[nH]2)c2nsnc2c1 registered its TGI at > 100 µM

The compound identified as CN(C)c1ccc(Nc2ncnc3ccccc23)cc1 registered its TGI at > 100 µM

The compound identified as CCOC(=O)NC(Nc1ccc(OC(F)(F)F)cc1)(C(F)(F)F)C(F)(F)F registered its TGI at > 100 µM

The compound identified as C[C@]12CC[C@H](O)CC1=CC[C@@H]1C2CC[C@]2(C)c3n[nH]nc3CC12 (stereo not given in full) registered its TGI at > 100 µM

The compound identified as COC(=O)[C@]12CC[C@H]3CN(C(=O)OCc4ccccc4)[C@H]([C@H]31)[C@H](c1ccco1)N2 registered its TGI at > 100 µM

The compound identified as O=C(Nc1ccccn1)/C(=C\C(=O)c1ccc(Cl)cc1)Nc1ccccc1 registered its TGI at > 10 µM

The compound identified as C=CCSc1nc2c(N)ncnc2n1C1OC(CO)C(O)C1O (stereo not given) registered its TGI at > 100 µM

The compound identified as O=C1C(Cl)=C(Nc2cccc(O)c2)C(=O)N1CCc1ccccc1 registered its TGI at > 100 µM

The compound identified as O=C(Nc1cccc(-n2ccc3c(NC(=O)c4ccccc4)nccc32)c1)Nc1ccc(Cl)c(C(F)(F)F)c1 registered its TGI at > 100 µM

The compound identified as CC(C)=CC(=O)c1[nH]c2ccccc2c1CC(=O)NCCc1cn(C(c2ccccc2)(c2ccccc2)c2ccccc2)cn1 registered its TGI at > 100 µM

The compound identified as COc1cc(C(=O)c2c(-c3ccccc3)oc3c(OC)cccc23)cc(OC)c1O registered its TGI at > 100 µM

The compound identified as COC(=O)[C@](NC(=O)OCc1ccccc1)([C@@H](C)S(=O)c1ccc(C)cc1)C(F)(F)F (stereo not given in full) registered its TGI at > 100 µM

The compound identified as CCc1c(-c2ccc(OC)cc2)c(=O)oc2cc(O)ccc12 registered its TGI at > 100 µM

The compound identified as N#Cc1c(-c2ccc(Cl)cc2)csc1NC(=O)Nc1ccc(Cl)c(C(F)(F)F)c1 registered its TGI at 0.696 µM

The compound identified as CC(C)/C(Cl)=N\OC(=O)Nc1ccc(F)cc1 registered its TGI at 24.1 µM

The compound identified as CCOC(=O)/C=C/C1=C(c2ccsc2)c2ccc(OC)cc2CC1 registered its TGI at > 100 µM

The compound identified as Cn1c(=O)n(CCCO)c(=O)c2c1nc(Oc1cccc(OC(F)(F)F)c1)n2Cc1ccc(Cl)cc1 registered its TGI at 21 µM

The compound identified as O=C(Nc1ccc(-n2cc(-c3ccncc3)c(-c3ccc(O)c(Cl)c3)n2)cc1)c1cc(C(F)(F)F)cc(C(F)(F)F)c1 registered its TGI at > 25 µM

The compound identified as COC(=O)[C@@H]1C[C@@]23CCCN4CC[C@@]5(c6cccc(OC)c6N(C=O)[C@]15CC2)[C@@H]43 registered its TGI at > 100 µM

The compound identified as CCN(CC)CCn1ncc2c3c(=O)c4cccnc4n(CCN(CC)CC)c3ccc21 registered its TGI at > 10 µM

The compound identified as C[n+]1c2ccccc2n2c3ccccc3c(NCCCN3CCOCC3)c(C#N)c21 registered its TGI at > 26.3 µM

The compound identified as c1cc(-c2ccc(-c3ccc(C4=NCCCN4)cc3)o2)ccc1C1=NCCCN1 registered its TGI at > 100 µM

The compound identified as C(=N\c1nc2cc3sc(/N=C/c4cccs4)nc3cc2s1)/c1cccs1 registered its TGI at > 100 µM

The compound identified as CCOC(=O)C1(Cc2ccc3c(c2)CCC3)Cc2cc3c(cc2C1=O)CCC3 (stereo not given) registered its TGI at > 100 µM

The compound identified as Cc1cc(-n2c(/C=C/c3ccc(Cl)cc3)nc3cc(Cl)ccc3c2=O)on1 registered its TGI at > 50 µM

* * *

I'd be grateful if you could share measured TGI for these entries.
- System: M14 melanoma
- method-description: NCI tumour cell line growth inhibition, 48 h

The compound identified as N#Cc1c(-c2ccc([N+](=O)[O-])cc2)cc(-c2ccc(Nc3ccnc4cc(C(F)(F)F)ccc34)cc2)[nH]c1=O registered its TGI at > 100 µM

The compound identified as O=C(Nc1ccccn1)/C(=C\C(=O)c1ccc(Cl)cc1)Nc1ccccc1 registered its TGI at > 10 µM

The compound identified as CC1NS(=O)(=O)N(C)C1=O (stereo not drawn) registered its TGI at > 100 µM

The compound identified as COc1ccc(C(c2ccc(C(C)C)cc(OC)c2=O)c2ccc(C(C)C)cc(OC)c2=O)cc1 registered its TGI at 28 µM

The compound identified as COC(=O)[C@@H]1C[C@@]23CCCN4CC[C@@]5(c6cccc(OC)c6N(C=O)[C@]15CC2)[C@@H]43 registered its TGI at > 100 µM

The compound identified as O=C(CN=C(CN(c1ccccc1)c1ccccc1)Oc1c(Cl)cc(Cl)cc1Cl)N1c2ccccc2Sc2ccccc21 registered its TGI at > 100 µM

The compound identified as c1ccc(NNC2=NCCN2)cc1 registered its TGI at > 100 µM

The compound identified as COc1cc(/C=C/C(=O)c2ccc(Nc3nc(Nc4ccc(F)cc4)nc(Nc4ccc(Cl)cc4)n3)cc2)cc(OC)c1OC registered its TGI at 43.5 µM

* * *

- System: HL-60(TB) leukemia
- method-description: NCI tumour cell line growth inhibition, 48 h; in the data active = GI50 below about 0.43 µM; inactive = the rest
Assign a class; possible classes are 1 = active, -1 = inactive

What did the test return for COc1cccc2c1C(=O)c1c(O)c3c(c(O)c1C2=O)CC(O)(/C(C)=N/NC(=O)CCCCC(=O)N/N=C(\C)C1(O)Cc2c(O)c4c(c(O)c2C(OC2CC(N)C(O)C(C)O2)C1)C(=O)c1c(OC)cccc1C4=O)CC3OC1CC(N)C(O)C(C)O1 (stereo not drawn) ? 1

What did the test return for COc1ccc(-c2nnc(COc3ccc(Cl)cc3Cl)o2)cc1OC ? -1

What did the test return for C=C1C(=O)O[C@H]2[C@H]1CC/C(CNC(=O)c1cccc3ccccc13)=C\CC[C@@]1(C)O[C@@H]21 ? -1

What did the test return for N#C/C(=C\c1cn(Cc2ccccc2)c2ccccc12)C(=O)Nc1ncc(Cc2ccccc2Cl)s1 ? -1

What did the test return for O=[N+]([O-])c1ccc(C(Br)c2ccc([N+](=O)[O-])cc2)cc1 ? -1

What did the test return for COc1cc(/C=C/C(=O)Nc2ccc3c(c2)/C(=C\c2cccn2C)C(=O)N3)cc(OC)c1OC ? -1

What did the test return for COc1cc(/C=C/C(=O)c2ccc(Nc3nc(Nc4ccc(F)cc4)nc(Nc4ccc(Cl)cc4)n3)cc2)cc(OC)c1OC ? -1

What did the test return for Cn1c(=O)n(CCCO)c(=O)c2c1nc(Oc1cccc(OC(F)(F)F)c1)n2Cc1ccc(Cl)cc1 ? -1
